Numbers sourced from patent US9718828B2.

For each of the compounds below, state its EC50.
system: Btk enzyme (His-Btk) (Homo sapiens (Human), UniProt Q06187)
Sequence (Q06187 whole entry): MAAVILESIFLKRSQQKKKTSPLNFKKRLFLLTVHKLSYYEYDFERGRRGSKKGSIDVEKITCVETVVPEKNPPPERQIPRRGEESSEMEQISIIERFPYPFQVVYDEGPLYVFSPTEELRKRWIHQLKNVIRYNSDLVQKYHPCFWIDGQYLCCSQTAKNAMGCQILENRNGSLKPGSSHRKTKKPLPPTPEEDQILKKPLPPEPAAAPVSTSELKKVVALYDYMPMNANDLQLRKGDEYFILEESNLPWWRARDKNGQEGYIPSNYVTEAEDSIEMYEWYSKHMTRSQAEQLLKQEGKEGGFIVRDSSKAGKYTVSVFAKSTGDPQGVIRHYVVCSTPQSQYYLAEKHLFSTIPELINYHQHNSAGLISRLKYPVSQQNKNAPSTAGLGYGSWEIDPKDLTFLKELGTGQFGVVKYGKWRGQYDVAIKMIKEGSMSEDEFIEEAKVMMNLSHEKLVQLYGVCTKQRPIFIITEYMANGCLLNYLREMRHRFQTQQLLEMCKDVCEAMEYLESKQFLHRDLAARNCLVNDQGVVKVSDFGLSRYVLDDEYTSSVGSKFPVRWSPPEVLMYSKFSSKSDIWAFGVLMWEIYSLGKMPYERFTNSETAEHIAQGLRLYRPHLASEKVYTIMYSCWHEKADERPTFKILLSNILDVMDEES
protocolNotes: Btk enzyme activity, IMAP fluorescence polarization assay (Assay Method A)
Where a name gives a salt, the structure may show the parent alone.

Here's what some known entries look like.
1) [2H]C([2H])([2H])c1cnc(N)c2c(-c3ccc(C(=O)Nc4cc(C(F)(F)F)ccn4)cc3)nc([C@@H]3CCCN(C(=O)C4(C)COC4)C3)n12 :: < 0.01 µM
2) CC(C)(CO)C(=O)N1CCC[C@@H](c2nc(-c3ccc(C(=O)Nc4cc(C(F)(F)F)ccn4)cc3)c3c(N)nccn23)C1 :: < 0.01 µM
3) N#Cc1ccnc(NC(=O)c2ccc(-c3nc(N4CCC4)n4ccnc(N)c34)cc2)c1 :: 0.1 to 1 µM

Please give EC50, item by item, for the list that follows.
1. CCCc1ccnc(NC(=O)c2ccc(-c3nc(C)n4c(C(=O)NCCCOC)cnc(N)c34)cc2)c1
2. CO[C@H]1CC[C@@H](c2nc(-c3ccc(C(=O)Nc4cc(C#N)ccn4)cc3)c3c(N)nccn32)CC1
3. Nc1nccn2c(C3CCOCC3)nc(-c3ccc(C(=O)Nc4ccccn4)cc3)c12
4. COCCC(=O)N1CCC[C@@H](c2nc(-c3ccc(C(=O)Nc4ccccn4)cc3)c3c(N)nccn23)C1
5. CC(C)C(=O)N1CC[C@@H](c2nc(-c3ccc(C(=O)Nc4ccccn4)cc3)c3c(N)nccn23)C1 [Example 127, TFA salt]
6. COCCOCCOCCOCCOCCOCCOCCOCCC(=O)N1CCC[C@@H](c2nc(-c3ccc(C(=O)Nc4cc(C(F)(F)F)ccn4)cc3)c3c(N)nccn23)C1

RESULT:
1: 0.1 to 1 µM; 2: < 0.01 µM; 3: 0.01 to 0.1 µM; 4: < 0.01 µM; 5: 0.1 to 1 µM; 6: < 0.01 µM

---

Exercise: for every item that follows, state its recorded EC50.
system: Btk enzyme (His-Btk) (Homo sapiens (Human), UniProt Q06187)
protocolNotes: Btk enzyme activity, IMAP fluorescence polarization assay (Assay Method A)
experimentalContext: read-out: EC50 Btk activity values - Assay Method A; IMAP-FP, 60 min pre-incubation, 5 μM ATP; class 100-1000 is given as ≧100 nM-<1 μM
Where a name gives a salt, the structure may show the parent alone.

Here's what some known entries look like.
1. Nc1nccn2c([C@@H]3CCC[C@@H](NC(=O)C4CCCO4)C3)nc(-c3ccc(C(=O)Nc4cc(C(F)(F)F)ccn4)cc3)c12 (relative stereo) :: < 0.01 µM
2. CCCc1ccnc(NC(=O)c2ccc(-c3nc([C@H]4CC[C@@H](OC)CC4)n4ccnc(N)c34)cc2)c1 :: < 0.01 µM
3. C[C@H]1CC[C@@H](c2nc(-c3ccc(C(=O)Nc4ccccn4)cc3)c3c(N)nccn23)CN1C(=O)CC1CC1 (relative stereo) [Example 191, TFA salt] :: < 0.01 µM
4. Cc1cnc(N)c2c(-c3ccc(C(=O)Nc4cc(C(F)(F)F)ccn4)cc3)nc([C@@H]3CCCN(C(=O)C4(C)COC4)C3)n12 :: < 0.01 µM
5. Nc1nccn2c1c(-c1ccc(C(=O)Nc3nc4c(s3)CCCC4)cc1)nc2[C@H]1CC[C@H](O)CC1 :: < 0.01 µM
6. CC(C)c1ccnc(NC(=O)c2ccc(-c3nc([C@H]4CC[C@H](O)CC4)n4ccnc(N)c34)cc2)c1 :: < 0.01 µM

Look up EC50 for the entries below, preserving their order.
1. COCCC(=O)N1C[C@H](c2nc(-c3ccc(C(=O)Nc4cc(C5CC5)ccn4)cc3)c3c(N)nccn23)CC[C@@H]1C (relative stereo) [Example 183, TFA salt]
2. Nc1ncnc2c1c(-c1ccc(C(=O)Nc3cc(C(F)(F)F)ccn3)cc1)nn2[C@@H]1CCCN(C(=O)C2CC2)C1
3. CCC(=O)N[C@@H]1CCC[C@@H](c2nc(-c3ccc(C(=O)Nc4cc(C(F)(F)F)ccn4)cc3)c3c(N)nccn23)C1 (relative stereo)
4. CCCc1ccnc(NC(=O)c2ccc(-c3nc([C@H]4CC[C@H](O)CC4)n4ccnc(N)c34)cc2F)c1
5. Nc1ncc(/C=C/c2ccccc2)n2c(C3CCOCC3)nc(-c3ccc(C(=O)Nc4ccccn4)cc3)c12
6. CCc1ccnc(NC(=O)c2ccc(-c3nc([C@H]4CC[C@H](O)CC4)n4ccnc(N)c34)cc2)c1

RESULT:
1. < 0.01 µM
2. < 0.01 µM
3. < 0.01 µM
4. < 0.01 µM
5. < 0.01 µM
6. < 0.01 µM

QUERY: What value of EC50 has been recorded for this entry: C[C@H]1CC[C@@H](c2nc(-c3ccc(C(=O)Nc4cc(C(F)(F)F)ccn4)cc3)c3c(N)nccn23)CN1C(=O)C1CCC1(F)F (relative stereo) [Example 190, TFA salt]
RESULT: < 0.01 µM

---

system: Btk enzyme (His-Btk) (Homo sapiens (Human), UniProt Q06187)
protocolNotes: Btk enzyme activity, IMAP fluorescence polarization assay (Assay Method A)
experimentalContext: read-out: EC50 Btk activity values - Assay Method A; IMAP-FP, 60 min pre-incubation, 5 μM ATP; class 100-1000 is given as ≧100 nM-<1 μM
Structures can show the parent of a compound that is named as a salt.
measure: EC50

1. CC1(C)CC(c2nc(-c3ccc(C(=O)Nc4cc(C(F)(F)F)ccn4)cc3)c3c(N)nccn23)CCO1 (stereo not shown) [Example 34] :: < 10 nM
2. COCCC(=O)N[C@@H]1CCCN(c2nc(-c3ccc(C(=O)Nc4cc(C(F)(F)F)ccn4)cc3)c3c(N)nccn23)C1 [Example 219] :: < 10 nM

Kindly give each listed record's EC50.
1. CCCc1ccnc(NC(=O)c2ccc(-c3nc(C4CCOC(C)(C)C4)n4ccnc(N)c34)cc2)c1 (stereo not shown) [Example 36]
2. Nc1nccn2c(N3CCCC(C(=O)NC4CC(F)(F)C4)C3)nc(-c3ccc(C(=O)Nc4cc(C(F)(F)F)ccn4)cc3)c12 (stereo not shown) [Example 226, TFA salt]
3. CCN(CC)C(=O)C1CCCN(c2nc(-c3ccc(C(=O)Nc4cc(C5CC5)ccn4)cc3)c3c(N)nccn23)C1 (stereo not shown) [Example 246, TFA salt]
4. CC(C)(F)C(=O)N[C@@H]1CCC[C@@H](c2nc(-c3ccc(C(=O)Nc4cc(C(F)(F)F)ccn4)cc3)c3c(N)nccn23)C1 (relative stereo) [Example 163]
5. Nc1nccn2c1c(-c1ccc(C(=O)Nc3cc(-c4ccccc4)ccn3)cc1)nc2[C@H]1CC[C@H](O)CC1 [Example 20]
6. Nc1nccn2c1c(-c1ccc(C(=O)Nc3cc(C4CC4)ccn3)cc1)nc2[C@H]1CC[C@H](O)CC1 [Example 7]

RESULT:
1: < 10 nM; 2: < 10 nM; 3: < 10 nM; 4: < 10 nM; 5: < 10 nM; 6: < 10 nM

Please look at the items below and tell me EC50 for each one, in order.
1. CCNC(=O)N1C[C@H](c2nc(-c3ccc(C(=O)Nc4cc(C(F)(F)F)ccn4)cc3)c3c(N)nccn23)CC[C@@H]1C (relative stereo) [Example 201, TFA salt]
2. C=Cc1cnc(N)c2c(-c3ccc(C(=O)Nc4cc(C(F)(F)F)ccn4)cc3)nc([C@@H]3CCCN(C(=O)C4(C)COC4)C3)n12 [Example 302]
3. CC(C)C(=O)N[C@@H]1CCC[C@@H](c2nc(-c3ccc(C(=O)Nc4cc(C(F)(F)F)ccn4)cc3)c3c(N)nccn23)C1 (relative stereo) [Example 167]
4. CCOC(=O)N1CCC[C@@H](c2nc(-c3ccc(C(=O)Nc4ccccn4)cc3)c3c(N)nccn23)C1 [Example 47]
5. CC1(C(=O)N2CCC[C@@H](c3nc(-c4ccc(C(=O)Nc5cc(C(F)(F)F)ccn5)cc4)c4c(N)ncc(-c5ccco5)n34)C2)COC1 [Example 311]

RESULT:
1: < 10 nM; 2: < 10 nM; 3: < 10 nM; 4: < 10 nM; 5: < 10 nM

---

system: UniProt Q06187
protocolNotes: BTK enzymatic activity, LANCE TR-FRET assay (Assay Method C)
Format: biochemical
experimentalContext: LANCE TR-FRET, 50 pM hBTK, 25 μM ATP; class 100-1000 is given as ≧100 nM-<1 μM; read-out: IC50 Btk activity values - Assay Method C
pIC50: −log10 of the molar value.
measure: pIC50

1) CS(=O)(=O)CC(=O)N1CCO[C@@H](c2nc(-c3ccc(C(=O)Nc4cc(C(F)(F)F)ccn4)cc3)c3c(N)nccn23)C1 :: > 8.00

# map each compound to its pIC50
1. CCC(=O)N1CCC[C@@H](c2nc(-c3ccc(C(=O)Nc4cc(C(F)(F)F)ccn4)cc3OC)c3c(N)nccn23)C1
2. CC1(C(=O)N2CCC[C@@H](c3nc(-c4ccc(C(=O)Nc5cc(C(F)(F)F)ccn5)cc4)c4c(N)ncc(C=O)n34)C2)COC1

RESULT:
1: > 8.00; 2: 7.00 to 8.00
